biological target: Peroxisome proliferator-activated receptor alpha (Homo sapiens) (UniProt Q07869); experiment: qHTS assay for small molecule agonists of the peroxisome proliferator-activated receptor alpha (PPARalpha) signaling pathway (AID 651778); conditions: PathHunter PPARalpha complementation, chemiluminescence, 6 h; stronger effect = higher value; also: % of control where 0% means no effect
Sequence (Q07869 whole entry, looked up): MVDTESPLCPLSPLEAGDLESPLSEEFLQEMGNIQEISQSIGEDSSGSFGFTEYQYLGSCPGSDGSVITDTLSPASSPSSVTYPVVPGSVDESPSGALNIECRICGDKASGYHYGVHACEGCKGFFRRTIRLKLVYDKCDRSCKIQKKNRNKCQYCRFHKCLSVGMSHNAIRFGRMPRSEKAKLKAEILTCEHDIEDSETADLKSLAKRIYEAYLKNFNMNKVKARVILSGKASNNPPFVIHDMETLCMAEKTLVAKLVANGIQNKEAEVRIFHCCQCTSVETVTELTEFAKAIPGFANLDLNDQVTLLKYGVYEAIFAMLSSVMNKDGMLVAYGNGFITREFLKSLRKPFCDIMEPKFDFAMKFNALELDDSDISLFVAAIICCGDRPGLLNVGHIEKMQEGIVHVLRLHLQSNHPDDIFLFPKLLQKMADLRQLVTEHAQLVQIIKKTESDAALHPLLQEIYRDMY
Each record here notes measured max response.
measured-property: max response (%)

compound=Cc1cc(C2CC2)nc(Nc2ccccc2)n1 measured_property="max response" result_unit=% experimental_result=5.58
compound=Nc1nc(N)nc(N)n1 measured_property="max response" result_unit=% experimental_result=-3.29
compound=CCNc1nc(NC(C)C)nc(OC)n1 measured_property="max response" result_unit=% experimental_result=-1.03
compound=C/C=C(\C)C(=O)O[C@H]1C[C@@H](OC(C)=O)[C@@]2(C(=O)OC)CO[C@H]3[C@@H](O)[C@@](C)([C@]45O[C@@]4(C)[C@H]4C[C@@H]5O[C@@H]5OC=C[C@@]54O)[C@H]4[C@]1(CO[C@]4(O)C(=O)OC)[C@@H]32 measured_property="max response" result_unit=% experimental_result=-3.71
compound=CCOP(=O)(OCC)Oc1ccc2c(C)c(Cl)c(=O)oc2c1 measured_property="max response" result_unit=% experimental_result=-3.26
compound=COP(=O)(OC)O/C(=C\Cl)c1cc(Cl)c(Cl)cc1Cl measured_property="max response" result_unit=% experimental_result=-3
compound=CCOC(=O)COc1cc(-c2nn(C)c(OC(F)F)c2Cl)c(F)cc1Cl measured_property="max response" result_unit=% experimental_result=-0.355
compound=CCNc1nc(NC(C)(C)C)nc(SC)n1 measured_property="max response" result_unit=% experimental_result=1.46
compound=CC(C)N(C(=O)SCC(Cl)=C(Cl)Cl)C(C)C measured_property="max response" result_unit=% experimental_result=22.8
compound="COC(=O)N(C(=O)N1COC2(C(=O)OC)Cc3cc(Cl)ccc3C2=N1)c1ccc(OC(F)(F)F)cc1 (stereo unspecified)" measured_property="max response" result_unit=% experimental_result=-1.75
compound=CCC[CH2][Sn](=[O])[CH2]CCC measured_property="max response" result_unit=% experimental_result=-3.37
compound="CCN(CC)C(=O)C(C)Oc1cccc2ccccc12 (stereo unspecified)" measured_property="max response" result_unit=% experimental_result=0.442
compound="COP(=O)(NC(C)=O)SC (stereo unspecified)" measured_property="max response" result_unit=% experimental_result=-0.657
compound=O=C1C=CC(=O)c2ccccc21 measured_property="max response" result_unit=% experimental_result=-1.22
compound=Nc1c(Cl)c(F)nc(OCC(=O)O)c1Cl measured_property="max response" result_unit=% experimental_result=0.318
compound=N#CCNC(=O)c1cnccc1C(F)(F)F measured_property="max response" result_unit=% experimental_result=-0.401
compound=CCOP(=S)(OCC)Oc1ncn(-c2ccccc2)n1 measured_property="max response" result_unit=% experimental_result=-2.29
compound=CSC(=O)c1c(C(F)F)nc(C(F)(F)F)c(C(=O)SC)c1CC(C)C measured_property="max response" result_unit=% experimental_result=6.5
compound=COC(=O)c1sccc1S(=O)(=O)NC(=O)Nc1nc(C)nc(OC)n1 measured_property="max response" result_unit=% experimental_result=-0.482
compound=CCSC(=O)N(CC)C1CCCCC1 measured_property="max response" result_unit=% experimental_result=-3.86
compound=CC[C@H](C)[C@H]1O[C@]2(C=C[C@@H]1C)C[C@@H]1C[C@@H](C/C=C(\C)[C@@H](O[C@H]3C[C@H](OC)[C@@H](O[C@H]4C[C@H](OC)[C@@H](NC)[C@H](C)O4)[C@H](C)O3)[C@@H](C)/C=C/C=C3\CO[C@@H]4[C@H](O)C(C)=C[C@@H](C(=O)O1)[C@]34O)O2 measured_property="max response" result_unit=% experimental_result=4.77
